inhibition at 10 µM values by entry
# tested-target: PLK1 (Homo sapiens (Human))
# Sequence (P53350 whole entry): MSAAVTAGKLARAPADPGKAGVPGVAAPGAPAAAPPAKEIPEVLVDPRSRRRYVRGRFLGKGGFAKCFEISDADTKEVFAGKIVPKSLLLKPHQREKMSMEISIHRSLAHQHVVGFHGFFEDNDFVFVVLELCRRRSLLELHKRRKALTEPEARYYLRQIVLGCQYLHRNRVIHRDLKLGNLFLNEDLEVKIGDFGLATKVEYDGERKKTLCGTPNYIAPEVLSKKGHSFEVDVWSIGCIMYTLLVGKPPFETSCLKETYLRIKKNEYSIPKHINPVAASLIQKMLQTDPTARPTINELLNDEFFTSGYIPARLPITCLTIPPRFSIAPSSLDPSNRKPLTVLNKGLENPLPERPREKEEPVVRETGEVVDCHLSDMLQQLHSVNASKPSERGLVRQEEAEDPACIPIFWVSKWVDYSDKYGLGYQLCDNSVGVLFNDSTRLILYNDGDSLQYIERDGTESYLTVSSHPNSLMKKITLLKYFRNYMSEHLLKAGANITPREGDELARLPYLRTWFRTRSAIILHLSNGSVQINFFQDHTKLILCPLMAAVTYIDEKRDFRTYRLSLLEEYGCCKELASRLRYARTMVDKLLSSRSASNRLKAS
# assay-info: KiNativ assay
# Format: binding
# cond: H929 live cell, read-out: inhibition (10 μM)
experimental-readout: inhibition at 10 µM (%)

INSERT INTO assay_data (smiles_text, experimental_readout, unit_abbreviation, quantitative_result) VALUES
  ('Nc1ncc(-c2ccc(NS(=O)(=O)C3CC3)cc2OC2CCCCC2)cc1-c1ccc2c(c1)CCNC2=O', 'inhibition at 10 µM', '%', -10.1),
  ('COc1cc(NS(=O)(=O)C2CC2)ccc1-c1cnc(N)c(-c2ccc3c(c2)CCNC3=O)c1', 'inhibition at 10 µM', '%', -11.1),
  ('Nc1ncc(-c2ccc(NS(=O)(=O)C3CC3)cc2F)cc1-c1ccc2c(c1)CCNC2=O', 'inhibition at 10 µM', '%', -20.6),
  ('CN(C1CC1)S(=O)(=O)c1ccc(-c2cnc(N)c(-c3ccc4c(c3)CCNC4=O)c2)c(F)c1', 'inhibition at 10 µM', '%', 15.2),
  ('Nc1ncc(-c2cccc([N+](=O)[O-])c2F)cc1-c1ccc2c(c1)CCNC2=O', 'inhibition at 10 µM', '%', 14.2),
  ('Nc1ncc(-c2cccc3ncsc23)cc1-c1ccc2c(c1)CCNC2=O', 'inhibition at 10 µM', '%', 6.6);
